# study.target: P2Y12 receptor (Homo sapiens, UniProt Q9H244)
# Construct: expressed in transfected cells; host or cells: CHO cells (membranes)
# Sequence (Q9H244 whole entry): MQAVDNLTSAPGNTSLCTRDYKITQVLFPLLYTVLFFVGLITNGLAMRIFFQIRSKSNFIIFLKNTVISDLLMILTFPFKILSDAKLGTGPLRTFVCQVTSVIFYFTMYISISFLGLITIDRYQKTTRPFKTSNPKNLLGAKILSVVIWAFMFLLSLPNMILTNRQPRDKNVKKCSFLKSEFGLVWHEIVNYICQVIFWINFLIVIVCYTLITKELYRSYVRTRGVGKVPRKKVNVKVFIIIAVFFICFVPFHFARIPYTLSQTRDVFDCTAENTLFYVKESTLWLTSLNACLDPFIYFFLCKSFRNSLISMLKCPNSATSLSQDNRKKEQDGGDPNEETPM
# experiment.description: Functional inhibition of 2-Me-S-ADP induced P2Y12 signalling (35S-GTPγS binding, membranes from P2Y12 transfected CHO-cells)
# Assay type: biochemical
# recorded.conditions: EC80 agonist, CHO-cell membranes, value given in each example, read-out: GTPγS(IC50 μM)
// values below are reported IC50

[
  {
    "compound": "CCOC(=O)c1cc(C#N)c(N2CCC(C(=O)NS(=O)(=O)Cc3ccccc3)C(C)C2)nc1C (stereo not shown) [Example 5]",
    "unit.annotation": "µM",
    "IC50": 0.067
  },
  {
    "compound": "CCOC(=O)c1cc(C#N)c(N2CCC(C(=O)NS(=O)(=O)Cc3ccccc3)C(CCC(=O)O)C2)nc1C (stereo not shown) [Example 30]",
    "unit.annotation": "µM",
    "IC50": 0.057
  },
  {
    "compound": "CCOC(=O)c1cc(C#N)c(N2CC(C(=O)NS(=O)(=O)Cc3c(F)cccc3F)C2)nc1CC [Example 9]",
    "unit.annotation": "µM",
    "IC50": 0.046
  },
  {
    "compound": "CCOC(=O)c1cc(C#N)c(N2CCC(C(=O)NS(=O)(=O)Cc3c(F)ccc(F)c3F)CC2)nc1C [Example 13]",
    "unit.annotation": "µM",
    "IC50": 0.071
  },
  {
    "compound": "Cc1nc(N2CCC(C(=O)NS(=O)(=O)Cc3ccc(F)cc3)CC2)c(C#N)cc1C(=O)OCC(F)(F)F [Example 3]",
    "unit.annotation": "µM",
    "IC50": 0.024
  },
  {
    "compound": "CCOC(=O)c1cc(C#N)c(N2CCC(C(=O)NS(=O)(=O)Cc3ccc(F)cc3F)CC2)nc1CC [Example 18]",
    "unit.annotation": "µM",
    "IC50": 0.02
  },
  {
    "compound": "CCOC(=O)c1cc(C#N)c(N2CC(C(=O)NS(=O)(=O)Cc3ccccc3F)C2)nc1C [Example 26]",
    "unit.annotation": "µM",
    "IC50": 0.035
  },
  {
    "compound": "CCOC(=O)c1cc(C#N)c(N2CCC(C(=O)NS(=O)(=O)Cc3c(F)cccc3F)CC2)nc1CC [Example 15]",
    "unit.annotation": "µM",
    "IC50": 0.048
  },
  {
    "compound": "CCOC(=O)c1cc(C#N)c(N2CCC(CC(=O)NS(=O)(=O)Cc3ccccc3)C2)nc1C (stereo not shown) [Example 1]",
    "unit.annotation": "µM",
    "IC50": 0.143
  },
  {
    "compound": "CCOC(=O)c1cc(C#N)c(N2CC(C(=O)NS(=O)(=O)Cc3ccc(F)cc3F)C2)nc1C [Example 20]",
    "unit.annotation": "µM",
    "IC50": 0.035
  }
]
